Reported pIC50 values are given for each entry in this list.
system name: Casein Kinase 1 (CK1 delta isoform) (Rattus norvegicus, UniProt Q06486)
Construct: a truncation at amino acid 318 of the C-terminal portion of the rat CK1 delta isoform; purchased New England Biolabs 6030; host or cells: E. coli
Sequence (Q06486 1-317): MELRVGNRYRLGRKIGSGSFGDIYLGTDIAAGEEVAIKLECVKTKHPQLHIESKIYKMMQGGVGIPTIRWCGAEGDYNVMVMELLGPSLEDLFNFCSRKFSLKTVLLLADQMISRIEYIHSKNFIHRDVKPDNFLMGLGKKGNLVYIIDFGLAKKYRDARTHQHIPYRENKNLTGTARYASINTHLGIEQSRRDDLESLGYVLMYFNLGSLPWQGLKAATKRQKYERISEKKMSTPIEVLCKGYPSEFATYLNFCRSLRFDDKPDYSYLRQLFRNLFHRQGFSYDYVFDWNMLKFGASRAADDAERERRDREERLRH
protocol summary: Kinase Selectivity Assay Casein Kinase 1
Format: biochemical
condition details: Tables 2a-2k, read-out: Caseine Kinase 1 IC50
pIC50: −log10 of the molar value.
metric: pIC50

> print(dat)
                               given.smiles  metric  relation.operator  reported.result
1  Nc1nc(Nc2ccc(N3CCCS3(=O)=O)cc2)nn1C(=O)c1c(F)cccc1F   pIC50                  =             4.87
2  CC(C)(C)c1ccc(C(=O)n2nc(Nc3ccc(S(N)(=O)=O)cc3)nc2N)s1   pIC50                  =             6.65
3  Cc1cc(C)c(C(=O)n2nc(Nc3ccc(NS(C)(=O)=O)cc3)nc2N)s1   pIC50                  =             6.09
4  Nc1ccc(F)c(C(=O)n2nc(Nc3ccc(S(N)(=O)=O)cc3)nc2N)c1F   pIC50                  =             5.02
5  Cc1ccsc1C(=O)n1nc(Nc2ccc(-n3cncn3)cc2)nc1N   pIC50                  <             6.00

* * *

system name: Casein Kinase 1 (CK1 delta isoform) (Rattus norvegicus)
Construct: a truncation at amino acid 318 of the C-terminal portion of the rat CK1 delta isoform
protocol summary: Kinase Selectivity Assay Casein Kinase 1
condition details: Tables 2a-2k, read-out: Caseine Kinase 1 IC50
pIC50: −log10 of the molar value.
# label = Y if pIC50 >= 6 else N

> print(dat)
                               given.smiles  group
1  Cc1ccc(F)c(C(=O)n2nc(Nc3ccc(N4CCNC4=O)cc3)nc2N)c1F      N
2  Cc1ccsc1C(=O)n1nc(Nc2ccc(N3CCNC3=O)cc2)nc1N      Y
3  CCc1ccc(C(=O)n2nc(Nc3ccc(S(=O)(=O)NCCN(C)C)cc3)nc2N)s1      Y
4  Nc1nc(Nc2ccc(S(N)(=O)=O)cc2)nn1C(=O)c1ccsc1      N
5  Nc1nc(Nc2ccc(S(N)(=O)=O)cc2)nn1C(=O)C1CCCC1      N

* * *

system name: ERK-1 protein (Homo sapiens, UniProt P27361)
Sequence (P27361 whole entry, species assumed): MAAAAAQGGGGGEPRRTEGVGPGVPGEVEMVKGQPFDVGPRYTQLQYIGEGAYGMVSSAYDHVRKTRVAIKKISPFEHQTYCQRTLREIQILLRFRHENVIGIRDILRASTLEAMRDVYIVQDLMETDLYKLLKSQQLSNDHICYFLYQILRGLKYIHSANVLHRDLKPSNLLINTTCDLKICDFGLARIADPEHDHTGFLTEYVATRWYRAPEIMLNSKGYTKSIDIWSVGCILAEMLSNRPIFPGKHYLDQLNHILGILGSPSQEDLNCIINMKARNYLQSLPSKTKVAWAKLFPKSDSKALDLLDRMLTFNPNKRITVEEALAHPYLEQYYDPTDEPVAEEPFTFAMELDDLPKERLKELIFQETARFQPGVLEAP
metric: IC50

> print(dat)
                               given.smiles  metric  reported.result
1  Nc1nc(Nc2ccc(S(N)(=O)=O)cc2)nn1C(=O)c1cccs1    IC50         > 100 µM

* * *

Reported IC50 values are given for each entry in this list.
system name: Insulin Receptor Kinase (Homo sapiens, UniProt P06213)
Sequence (P06213 980-1352): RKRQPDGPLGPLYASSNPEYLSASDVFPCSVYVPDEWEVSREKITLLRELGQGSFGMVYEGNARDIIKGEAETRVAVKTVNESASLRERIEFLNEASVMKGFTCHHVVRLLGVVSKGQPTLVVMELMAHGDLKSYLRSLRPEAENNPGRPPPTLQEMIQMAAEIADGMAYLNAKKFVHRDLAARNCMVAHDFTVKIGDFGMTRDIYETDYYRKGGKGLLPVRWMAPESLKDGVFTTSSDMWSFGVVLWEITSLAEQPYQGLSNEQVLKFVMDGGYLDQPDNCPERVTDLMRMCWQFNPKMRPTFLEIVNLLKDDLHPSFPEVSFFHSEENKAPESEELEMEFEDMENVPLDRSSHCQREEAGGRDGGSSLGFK
protocol summary: Kinase Selectivity Assay Insulin Receptor Kinase
Type: biochemical
condition details: Kinase Selectivity, Tables 2a-2k; read-out: Insulin R Kinase IC50
metric: IC50

> print(dat)
                               given.smiles  reported.result
1  Cc1ccc(F)c(C(=O)n2nc(Nc3ccc(S(N)(=O)=O)cc3)nc2N)c1Cl          45.1 µM
2  Nc1nc(Nc2ccc(S(N)(=O)=O)cc2)n(C(=S)Nc2c(F)cccc2F)n1          2.65 µM
3  CNS(=O)(=O)c1ccc(Nc2nc(N)n(C(=O)c3c(F)ccc(C)c3F)n2)cc1          29.6 µM
4  Nc1nc(Nc2ccc(N3CCNC3=O)cc2)nn1C(=O)c1c(F)cccc1F          > 10 µM
5  Cc1ccsc1C(=O)n1nc(Nc2ccc(NS(C)(=O)=O)cc2)nc1N          2.76 µM
6  Cc1ccsc1C(=O)n1nc(Nc2ccc(S(=O)(=O)Nc3ccccn3)cc2)nc1N         > 100 µM

* * *

system name: CDK4/D1 complex (Mus musculus, UniProt P30285)
Sequence (P30285 whole entry): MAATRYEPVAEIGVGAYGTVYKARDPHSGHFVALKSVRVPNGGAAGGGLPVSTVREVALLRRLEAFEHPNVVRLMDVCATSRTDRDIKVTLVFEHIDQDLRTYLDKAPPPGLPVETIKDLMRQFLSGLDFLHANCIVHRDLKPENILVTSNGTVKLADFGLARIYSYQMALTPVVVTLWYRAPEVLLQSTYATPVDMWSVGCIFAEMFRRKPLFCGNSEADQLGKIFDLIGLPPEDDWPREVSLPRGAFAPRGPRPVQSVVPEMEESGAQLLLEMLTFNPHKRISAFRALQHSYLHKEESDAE
Sequence (P25322 whole entry partner): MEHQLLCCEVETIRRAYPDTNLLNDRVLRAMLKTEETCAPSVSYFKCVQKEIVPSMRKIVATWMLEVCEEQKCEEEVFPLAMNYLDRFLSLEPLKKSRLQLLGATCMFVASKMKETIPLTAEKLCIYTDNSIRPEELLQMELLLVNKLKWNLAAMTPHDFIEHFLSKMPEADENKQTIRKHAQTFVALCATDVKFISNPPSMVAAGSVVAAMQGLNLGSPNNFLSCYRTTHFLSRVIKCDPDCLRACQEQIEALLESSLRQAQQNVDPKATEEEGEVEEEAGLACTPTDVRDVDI
protocol summary: Kinase Selectivity Assay CDK4
condition details: Tables 2a-2k
Method: Assays to test compound inhibition of other kinases were preformed using methods that measure the amount of phosphorylation of a biotinylated peptide substrate. Biotinylated peptide substrates were selected from the literature as appropriate for the enzyme being evaluated. […] The plate was read on a scintillation counter to determine ^33P-γ-ATP incorporated into the immobilized peptide. […] A maximum and minimum signal for the assay was determined on each plate. […]
metric: IC50 (nM)

> print(dat)
                               given.smiles  unit.info  reported.result
1  Cc1ccc(F)c(C(=O)n2nc(Nc3ccc(S(N)(=O)=O)cc3)nc2N)c1Cl         nM              187
2  CN1CCN(c2ccc(Nc3nc(N)n(C(=O)c4c(F)cccc4F)n3)cc2)CC1         nM              129
3  Nc1nc(Nc2ccc(S(N)(=O)=O)cc2)nn1C(=O)c1c(F)cccc1Cl         nM              167

* * *

system name: CDK1:Cyclin-B (Homo sapiens)
Construct: purchased New England Biolabs 6020; host or cells: insect cells
Sequence (P06493 whole entry): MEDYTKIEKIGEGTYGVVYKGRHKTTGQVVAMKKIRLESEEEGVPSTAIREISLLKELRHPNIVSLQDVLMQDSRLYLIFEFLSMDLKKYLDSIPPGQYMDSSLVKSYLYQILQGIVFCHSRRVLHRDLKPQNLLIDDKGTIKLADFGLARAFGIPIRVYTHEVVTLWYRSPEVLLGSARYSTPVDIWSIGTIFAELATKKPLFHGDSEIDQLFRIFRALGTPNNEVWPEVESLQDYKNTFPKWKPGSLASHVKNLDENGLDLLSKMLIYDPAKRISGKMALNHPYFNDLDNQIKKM
Sequence (P14635 whole entry partner): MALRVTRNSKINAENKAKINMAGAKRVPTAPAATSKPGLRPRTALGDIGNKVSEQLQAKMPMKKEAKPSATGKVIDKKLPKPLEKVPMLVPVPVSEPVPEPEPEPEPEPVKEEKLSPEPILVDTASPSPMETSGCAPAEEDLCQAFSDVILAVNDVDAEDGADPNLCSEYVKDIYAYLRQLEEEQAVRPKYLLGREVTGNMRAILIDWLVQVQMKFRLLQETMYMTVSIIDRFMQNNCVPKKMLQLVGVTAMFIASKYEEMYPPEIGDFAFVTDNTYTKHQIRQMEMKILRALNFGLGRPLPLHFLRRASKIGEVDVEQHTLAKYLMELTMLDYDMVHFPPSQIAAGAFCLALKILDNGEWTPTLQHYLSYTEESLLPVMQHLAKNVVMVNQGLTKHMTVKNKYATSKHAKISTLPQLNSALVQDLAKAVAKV
protocol summary: CDK1 Screening Assay
Type: biochemical
condition details: Table 1; read-out: CDK1 IC50
Reported IC50 values are given for each entry in this list.
metric: IC50

> print(dat)
                                   compound  reported.result
1  Cc1ccccc1C(=O)n1nc(Nc2ccc(S(N)(=O)=O)cc2)nc1N [Cpd 57]         0.067 µM
2  Nc1nc(Nc2ccc(S(N)(=O)=O)cc2)nn1C(=O)c1sccc1F [Cpd 16]        0.0021 µM
3  Cc1cc(C)c(C(=O)n2nc(Nc3ccc(S(N)(=O)=O)cc3)nc2N)c(C)c1 [Cpd 11]         0.305 µM
4  Nc1nc(Nc2ccc(S(N)(=O)=O)cc2)nn1C(=O)c1c(F)ccc([N+](=O)[O-])c1F [Cpd 54]          0.55 µM
5  CCOc1ccsc1C(=O)n1nc(Nc2ccc(S(N)(=O)=O)cc2)nc1N [Cpd 18]         0.067 µM
6  Cc1nnsc1C(=O)n1nc(Nc2ccc(S(N)(=O)=O)cc2)nc1N [Cpd 36]          1.56 µM
7  Cc1ccsc1C(=O)n1nc(Nc2ccc(N3CCN(C)CC3)cc2)nc1N [Cpd 73]           2.2 µM
8  Nc1nc(Nc2ccc(S(N)(=O)=O)cc2)nn1C(=O)c1ccccc1[N+](=O)[O-] [Cpd 9]         0.039 µM
9  Nc1nc(Nc2ccc(S(N)(=O)=O)cc2)nn1C(=O)c1cccnc1 [Cpd 28]         0.982 µM

* * *

system name: Insulin Receptor Kinase (Homo sapiens)
protocol summary: Kinase Selectivity Assay Insulin Receptor Kinase
Type: biochemical
condition details: Kinase Selectivity, Tables 2a-2k; read-out: Insulin R Kinase IC50
Reported IC50 values are given for each entry in this list.
metric: IC50

> print(dat)
                                given.smiles  reported.result
 1  Cc1ccsc1C(=O)n1nc(Nc2ccc(S(=O)(=O)NCCN(C)C)cc2)nc1N          2090 nM
 2  Cc1ccc(F)c(C(=O)n2nc(Nc3ccc(N4CCNC4=O)cc3)nc2N)c1F      > 100000 nM
 3  CCc1ccc(C(=O)n2nc(Nc3ccc(S(N)(=O)=O)cc3)nc2N)s1           123 nM
 4  Nc1nc(Nc2ccc(S(N)(=O)=O)cc2)nn1C(=O)c1cccs1          1200 nM
 5  Cc1nc(C)c(C(=O)n2nc(Nc3ccc(S(N)(=O)=O)cc3)nc2N)s1       > 10000 nM
 6  Cc1cc(C)c(C(=O)n2nc(Nc3ccc(-n4ccnc4)cc3)nc2N)s1          3080 nM
 7  Nc1nc(Nc2ccc(N3CCCS3(=O)=O)cc2)nn1C(=O)c1c(F)cccc1F      > 100000 nM
 8  Nc1nc(Nc2ccc(S(N)(=O)=O)cc2)nn1C(=O)c1c(F)cccc1Cl      > 100000 nM
 9  Nc1nc(Nc2ccc(S(=O)(=O)Nc3ccccn3)cc2)nn1C(=O)c1c(F)cccc1F      > 100000 nM
10  Cc1ccsc1C(=O)n1nc(Nc2ccc(-n3cncn3)cc2)nc1N      > 100000 nM
11  Nc1nc(Nc2ccc(S(N)(=O)=O)cc2)nn1C(=O)c1sccc1F      > 100000 nM
12  Nc1ccc(F)c(C(=O)n2nc(Nc3ccc(S(N)(=O)=O)cc3)nc2N)c1F      > 100000 nM
13  CCc1ccc(C(=O)n2nc(Nc3ccc(S(=O)(=O)NCCN(C)C)cc3)nc2N)s1           123 nM
14  CCc1ccc(C(=O)n2nc(Nc3ccc(NS(C)(=O)=O)cc3)nc2N)s1            53 nM
15  CCc1ccc(C(=O)n2nc(Nc3ccc(S(=O)(=O)NC)cc3)nc2N)s1           172 nM
16  Nc1nc(Nc2ccc(S(N)(=O)=O)cc2)nn1C(=O)c1c(F)cccc1F      > 100000 nM
17  Nc1nc(Nc2ccc(S(N)(=O)=O)cc2)nn1C(=O)c1ccsc1          4960 nM
18  Nc1nc(Nc2ccc(S(=O)(=O)N3CCCCC3)cc2)nn1C(=O)c1cccs1      > 100000 nM
19  CNS(=O)(=O)c1ccc(Nc2nc(N)n(C(=O)c3sccc3C)n2)cc1          1100 nM
